# target-desc: uPA (Homo sapiens, UniProt P00749)
# test-description: biochemical
# Type: biochemical
# Design: purchased Sigma-Aldrich
# test-conditions: pH 8.8; read-out: IC50 (nM) uPA
# Protocol: The substrate was obtained from Chromogenix. The human enzyme was obtained from Sigma-Aldrich, the mouse uPA was obtained from Molecular Innovations.Inc (USA). […] A 50 mM Tris buffer, pH 8.8, was used. […] Activity measurements were routinely performed in duplicate. […]
metric-name: IC50 (nM)
Please state the figure in nM; there is no need to write the unit.

I am curious: what IC50 value has been reported for N=C(N)Nc1ccc(CC(NC(=O)c2ccccc2)P(=O)(Oc2ccccc2)Oc2ccccc2)cc1 (stereo not shown) ?
114

----------
# target-desc: thrombin (Homo sapiens)
# test-description: Selectivity: thrombin inhibition, chromogenic substrate S-2366
# Format: biochemical
metric-name: IC50 (µM)
API: value field is a number in µM; no unit string.

Fill in the blank: the reported IC50 of COC(=O)NC(Cc1ccc(NC(=N)N)cc1)P(=O)(Oc1ccccc1)Oc1ccccc1 (centres unmarked) [Compound 35a] is ____.
16.6

----------
For each entry below, report its pIC50 value.
# target-desc: UniProt P00749
# test-description: biochemical
# Type: biochemical
# Design: purchased Sigma-Aldrich
Kindly note that pIC50 refers to -log10 of the concentration in mol/L and answer with the value alone.

May I ask what pIC50 has been recorded for N=C(N)Nc1ccc(CC(NC(=O)NCc2ccccc2)P(=O)(Oc2ccccc2)Oc2ccccc2)cc1 (stereo not drawn) [Compound 39b] ?
4.36

CC(=O)NC(Cc1ccc(NC(=N)N)cc1)P(=O)(Oc1ccccc1)Oc1ccccc1 (stereo not drawn) [Compound 41] ?
8.00

Thanks! And CNC(=O)NC(Cc1ccc(NC(=N)N)cc1)P(=O)(Oc1ccccc1)Oc1ccccc1 (stereo not drawn) [Compound 39a] ?
4.00

----------
So I've got a bunch of compounds here, and I need their IC50 values.
# target-desc: FXa (Homo sapiens, UniProt P00742)
# Sequence (P00742 235-488 limits assumed): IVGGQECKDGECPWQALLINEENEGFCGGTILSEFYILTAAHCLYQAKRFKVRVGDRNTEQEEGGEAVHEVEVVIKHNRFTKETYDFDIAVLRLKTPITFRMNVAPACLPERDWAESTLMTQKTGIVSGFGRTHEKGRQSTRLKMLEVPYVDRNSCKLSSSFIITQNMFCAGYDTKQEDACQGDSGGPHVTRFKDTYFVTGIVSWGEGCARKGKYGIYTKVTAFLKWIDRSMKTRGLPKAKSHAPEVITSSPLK
# Sequence (P00742 41-179 partner limits assumed): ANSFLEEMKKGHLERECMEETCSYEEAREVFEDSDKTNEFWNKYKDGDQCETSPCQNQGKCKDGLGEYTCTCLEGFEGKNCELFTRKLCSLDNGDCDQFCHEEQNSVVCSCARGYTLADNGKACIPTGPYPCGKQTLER
# test-description: Selectivity: FXa inhibition, chromogenic substrate S-2772
# Assay type: biochemical
# test-conditions: 522 μM substrate, Tris pH 8.3 with […] CaCl2; read-out: IC50 (μM) FXa
Report the figure in µM without appending any unit label.

Query the reported IC50 for FXa (Homo sapiens, UniProt P00742); item: CC(=O)Nc1ccc(OP(=O)(Oc2ccc(NC(C)=O)cc2)C(Cc2ccc(NC(=N)N)cc2)NC(=O)OCc2ccccc2)cc1 (centres unmarked)
100

Then what about the compound CC(C)c1ccc(C(C)C)c(S(=O)(=O)NC(Cc2ccc(NC(=N)N)cc2)P(=O)(Oc2ccccc2)Oc2ccccc2)c1C(C)C (centres unmarked) ?
20

Also CCC(NC(=O)OCc1ccccc1)(c1ccc(C(=N)N)cc1)P(=O)(Oc1ccccc1)Oc1ccccc1 (centres unmarked) , if possible.
13.7

Could you do the same for N=C(N)Nc1ccc(CC(NC(=O)OCc2ccccc2)P(=O)(Oc2ccccc2)Oc2ccccc2)cc1 (centres unmarked) , please?
100

Quick one: N=C(N)c1ccc(C(NC(=O)OCc2ccccc2)P(=O)(Oc2ccccc2)Oc2ccccc2)cc1 (centres unmarked)
6

----------
Please provide measured IC50 for the entries that follow.
# target-desc: trypsin (Bos taurus)
# Sequence (P00760 24-246): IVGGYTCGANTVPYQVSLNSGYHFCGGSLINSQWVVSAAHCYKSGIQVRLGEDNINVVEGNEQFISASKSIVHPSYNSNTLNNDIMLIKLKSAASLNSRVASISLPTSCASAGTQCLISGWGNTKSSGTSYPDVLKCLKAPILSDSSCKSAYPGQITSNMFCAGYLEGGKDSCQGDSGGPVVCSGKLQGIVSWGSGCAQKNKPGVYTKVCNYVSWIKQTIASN
# test-description: Selectivity: trypsin inhibition, chromogenic substrate BAPNA
# Format: biochemical
# test-conditions: 425 μM substrate, Tris pH 8.2
Numbers only here, please. The scale is µM.

Please give the measured IC50 for this molecule: CC(C)c1ccc(C(C)C)c(S(=O)(=O)NC(Cc2ccc(NC(=N)N)cc2)P(=O)(Oc2ccccc2)Oc2ccccc2)c1C(C)C (stereo not drawn) [Compound 7f]
5.6

Next molecule up: CCC(NC(=O)OCc1ccccc1)(c1ccc(C(=N)N)cc1)P(=O)(Oc1ccccc1)Oc1ccccc1 (stereo not drawn) [Compound 8c]
3.5

Please give the result for Cc1ccccc1S(=O)(=O)NC(Cc1ccc(NC(=N)N)cc1)P(=O)(Oc1ccccc1)Oc1ccccc1 (stereo not drawn) [Compound 7d] too.
0.17

Values compiled from patent US8003627B2.
